All values here come from ChEMBL document CHEMBL1961873.

Entries and their inhibition
tested.system: Serine/threonine-protein kinase D3 (Homo sapiens) (UniProt O94806);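 further: values are mean inhibition figures against PRKD3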
Sequence (O94806 whole entry): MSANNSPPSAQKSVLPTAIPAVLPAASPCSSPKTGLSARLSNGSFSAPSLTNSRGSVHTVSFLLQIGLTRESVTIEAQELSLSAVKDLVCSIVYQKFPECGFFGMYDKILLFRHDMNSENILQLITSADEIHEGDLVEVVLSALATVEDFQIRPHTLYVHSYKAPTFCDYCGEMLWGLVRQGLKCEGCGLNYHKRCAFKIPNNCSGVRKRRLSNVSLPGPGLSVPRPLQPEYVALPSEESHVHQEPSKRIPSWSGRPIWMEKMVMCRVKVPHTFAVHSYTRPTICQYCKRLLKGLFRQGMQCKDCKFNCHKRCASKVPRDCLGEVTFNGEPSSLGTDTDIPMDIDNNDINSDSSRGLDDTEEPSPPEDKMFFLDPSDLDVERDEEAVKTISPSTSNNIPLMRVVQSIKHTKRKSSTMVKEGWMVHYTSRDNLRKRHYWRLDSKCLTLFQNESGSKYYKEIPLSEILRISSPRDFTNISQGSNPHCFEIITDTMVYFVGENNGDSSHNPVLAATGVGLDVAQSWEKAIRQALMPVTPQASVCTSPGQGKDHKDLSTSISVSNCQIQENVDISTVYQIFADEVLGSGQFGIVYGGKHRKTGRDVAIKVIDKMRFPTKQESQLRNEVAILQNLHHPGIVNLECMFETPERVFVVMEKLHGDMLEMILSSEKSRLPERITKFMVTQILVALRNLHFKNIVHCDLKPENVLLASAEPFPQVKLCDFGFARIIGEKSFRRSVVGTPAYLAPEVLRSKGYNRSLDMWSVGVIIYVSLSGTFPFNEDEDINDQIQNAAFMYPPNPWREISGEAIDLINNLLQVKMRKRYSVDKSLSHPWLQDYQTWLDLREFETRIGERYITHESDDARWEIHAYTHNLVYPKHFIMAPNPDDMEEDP
experimental.context: at 1 µM

molecule | inhibition [%]
CCN1CCC(C(=O)Nc2n[nH]c3nnc(-c4cccc(F)c4F)cc23)CC1 | -0.3
Cn1c(-c2nonc2N)nc2cnccc21 | 8.54
CNC(=O)c1cncc(/C=C/c2ccccc2C)c1 | 4.34
FC(F)(F)CNc1nccc(-c2cnn3ncccc23)n1 | 3.81
COc1cc(N2CCN(C(C)C)CC2)ccc1Nc1nc(Nc2cccc3ncccc23)c2cc[nH]c2n1 | 4.56
CC1(C)CC(n2cnc(-c3ccc(F)cc3)c2-c2ccnc(N)n2)CC(C)(C)N1 | 3.8
CC(C)c1ccc(-c2cc(-c3c[nH]nc3-c3ccccn3)ccn2)cc1 | 5.01
NS(=O)(=O)c1ccc(N/N=C2\C(=O)Nc3ccc(C(=O)NCc4ccncc4)cc32)cc1 | 16.4
O=C1Nc2ccccc2/C1=C1\CCc2cc(O)ccc21 | 11.8
NC(=O)c1ccc2c(-c3ccnc(NCCCO)n3)c(-c3ccc(F)cc3)nn2c1 | 28.4
COc1cc2c(cc1Nc1nc(Nc3cccc(F)c3C(N)=O)c3cc[nH]c3n1)N(C(=O)CN1CCN(C(C)C)CC1)CC2 | 8.43
COC(=O)Nc1nc2ccc(Oc3ccc(NC(=O)Nc4cc(C(F)(F)F)ccc4F)cc3)cc2s1 | 0.53
O=C(O[C@H]1CN[C@H](C#Cc2cc3ncnc(Nc4ccc(OCc5cccc(F)c5)c(Cl)c4)c3s2)C1)N1CCOCC1 | 6.45
Fc1cccc(COc2ccc(Nc3ncncc3C#Cc3ccccc3)cc2Cl)c1 | 5.73
CN(c1ccc(NC(=O)NCCN2CCOCC2)cc1)c1ccnc(Nc2ccc(CS(C)(=O)=O)cc2)n1 | 0.94
N#Cc1cccc(Nc2ncc(-c3ccccc3)o2)c1 | 1.02
CS(=O)(=O)Nc1ccc(-c2ccc3c(NC(=O)C4CC4)n[nH]c3c2)cc1 | 6.13
CCS(=O)(=O)c1ccc(OC)c(Nc2ncc(-c3cccc(F)c3)o2)c1 | 4.73
O=C(Nc1n[nH]c2nnc(-c3cccnc3)cc12)C1CC1 | 0.02
CNC(=O)c1ncccc1Nc1nc(Nc2cc3c(cc2OC)CCCN3C(=O)CN(C)C)nc2[nH]ccc12 | 55.3
CC1=C(C(=O)Nc2ccc3[nH]nc(C)c3c2)C(c2ccc(C(F)(F)F)cc2)CC(=O)N1 (stereo unspecified) | 9.27
